Collected melting point values appear next to each entry.

>>> df
                                   molecule    measurement
0  CCc1nc(OC)c(NC(=O)N2CCN(c3cccc(O)c3)CC2)cc1C(=O)NC(C)C(=O)Nc1cc(CO)cc(Nc2c3ccccc3nc3ccccc23)c1 (centres undefined)  207 to 209 °C

# input GET /values?readout=melting point&item= `COc1ccc(NS(=O)(=O)c2cc3cc(Cl)ccc3oc2=O)cc1`
# output 175 to 177 °C

# input GET /values?readout=melting point&item= CC(ON1C(C)(C)CC2(CC1(C)C)OCC(C)(C)CO2)c1ccc(C(=O)c2ccccc2)cc1 (centres undefined)
# output 104 to 117 °C

---

Collected melting point values appear next to each entry.

>>> print(df.to_string())
                                   compound    measurement
0  Cc1ccc(NN)c2c1CC(C)O2 (stereo not given)    90 to 92 °C
1      CC(C)c1nc(CO)[nH]c1Sc1cc(Cl)cc(Cl)c1  191 to 192 °C

# input GET /values?readout=melting point&item= `CC(C)(C)c1cc(C(C)(C)C)cc(C(C)(C)CC(=O)OP2(=O)Oc3c(cc(C(C)(C)C)cc3C(C)(C)C)Cc3cc(C(C)(C)C)cc(C(C)(C)C)c3O2)c1`
# output 188 °C

# input GET /values?readout=melting point&item= `O=C(Nc1ccc(F)cc1)N(O)Cc1ccc(OCc2csc(-c3ccc(C(F)(F)F)cc3)n2)cc1`
# output 174 to 176 °C

# input GET /values?readout=melting point&item= `CCCCCCCc1ccc(C(=O)Nc2ccc(C(=O)NN=C3C(=O)Nc4ccc(I)cc43)cc2)cc1`
# output 306 °C

# input GET /values?readout=melting point&item= `Cn1cc(C(=O)O)cc1Cl`
# output 201 to 203 °C

# input GET /values?readout=melting point&item= `O=C(O)c1c[nH]c(Sc2cc(Cl)cc(Cl)c2)c1`
# output 169 to 172 °C

# input GET /values?readout=melting point&item= CC1CN(C(=O)Cn2c(=O)n(C)c3nc(-c4ccccc4)ncc32)CC(C)O1 (stereo not given)
# output 160 to 161 °C

# input GET /values?readout=melting point&item= `CCCCCCN(Cc1ccc2ccccc2n1)C(Nc1ccc(OC)cc1OC)=C1C(=O)OC(C)(C)OC1=O`
# output 106 to 109 °C

# input GET /values?readout=melting point&item= NNC1NS(=O)(=O)c2ccccc21 (stereo not given)
# output 249 °C

# input GET /values?readout=melting point&item= `C=CCOc1ccc(C(=O)c2ccc(Cl)c(S(=O)(=O)N=CN(C)C)c2)c(Cl)c1Cl`
# output 141 to 142 °C

# input GET /values?readout=melting point&item= `O=c1c2ccccc2nc2n1CCc1c-2[nH]c2ccc(F)cc12`
# output 290 °C

# input GET /values?readout=melting point&item= Cc1c(C)c(N2Cc3ccccc3C2)c(C)c2c1OC(C)(C)C2c1ccc(C(C)C)cc1 (stereo not given)
# output 113 to 114 °C

# input GET /values?readout=melting point&item= `N#Cc1cccc(-c2ccccc2)n1`
# output 65.2 to 66.1 °C

# input GET /values?readout=melting point&item= `COc1cccc(-c2nc(-c3ccccc3)c3ncc(Cl)cc3n2)c1`
# output 112 to 113 °C

# input GET /values?readout=melting point&item= `Cc1cc(O)c(CC(=O)OC(C)C)cc1O`
# output 123 °C

# input GET /values?readout=melting point&item= `O=C(Nc1cn2cc(Cl)ccc2n1)c1ccc(C2(C(=O)O)CCCCC2)cc1`
# output 288 °C

# input GET /values?readout=melting point&item= `Nc1cc(-n2cc(C(=O)O)c(=O)c3cc(F)c(N4CC(N)C4)c(Cl)c32)cnc1Cl`
# output 280 °C

# input GET /values?readout=melting point&item= CCc1cc(Cl)cc2c1NC(C)NS2(=O)=O (stereo not given)
# output 181 to 183 °C

# input GET /values?readout=melting point&item= `CC(C)(CC(=O)Nc1cccc(OCc2ccc3ccc(F)cc3n2)c1)C(=O)O`
# output 209 to 210 °C

---

EXPERIMENTAL READOUT: melting point

// below: answered molecules
                                   molecule    measurement
0  Cc1ccc(N2C(=O)C(O)=C(C(=O)c3ccc(C(C)C)cc3)C2c2ccc(-n3cncn3)cc2)nn1 (stereo unspecified)         284 °C
1  Cc1ccc(N2C(=O)c3ccccc3C2O)nn1 (stereo unspecified)         232 °C
2  CCn1nc(-c2ccccc2)c(C(C)=O)c(Nc2cccc(C(=O)O)c2Cl)c1=O  255 to 256 °C
3  Cc1oc(-c2ccccc2)nc1COc1ccc(CON=C(CC(N)=O)c2ccccc2)cc1  164 to 165 °C
4            CSc1c(Cl)nc(N2CCNCC2)nc1NC(C)C         147 °C
5  COc1ccc2c(c1)CCC1C2C(O)CC2(C)C(O)CCC12 (stereo unspecified)  161 to 162 °C
6      O=c1c2cccnc2c(-c2ccccc2)cn1Cc1ccccc1  166 to 167 °C
7                        Oc1ccc2cc(F)ccc2c1  118 to 120 °C
8  Cc1cccc(NC(=O)NCC(=O)N(CC(=O)OC(C)(C)C)c2cccc(C(F)(F)F)c2)c1         140 °C
9    Cc1cc(OCc2ccccc2)cc(OCCCC(C)C)c1C(=O)O    83 to 85 °C

# input GET /values?readout=melting point&item= O=CN(O)C(CN1CCOCC1)CS(=O)(=O)c1ccccc1Oc1ccc(OC(F)(F)F)cc1 (stereo unspecified)
# output 161 to 163 °C

# input GET /values?readout=melting point&item= Cc1c(NC(=O)CC(C)(C)C)c(C)c2c(c1-c1ccc[nH]1)OCC2c1ccc(C(C)C)cc1 (stereo unspecified)
# output 188 to 190 °C

# input GET /values?readout=melting point&item= `N#Cc1[nH]c2ccc(Cl)cc2c1-c1ccccc1F`
# output 185 to 186 °C

# input GET /values?readout=melting point&item= `COP(=O)(CC(=O)COc1cccc(Cl)c1)OC`
# output 78 to 79 °C

# input GET /values?readout=melting point&item= `CCNC(=O)Nc1cc(-c2c(-c3ccc(F)c(C)c3)nc3c(C)cc(Cl)nn23)ccn1`
# output 229 to 230 °C

# input GET /values?readout=melting point&item= `Cn1c2ccccc2c2cc(C=O)c3ccccc3c21`
# output 188 to 192 °C

---

Collected melting point values appear next to each entry.

// below: answered compounds
>>> print(df.to_string())
                                   compound    measurement
0                   Cc1sc2c(=O)[nH]cnc2c1Br  320 to 322 °C
1  N#Cc1ccc(C(=O)N[C@H]2CC[C@H](CCN3CCC(c4cccc5c4CCO5)CC3)CC2)cc1         230 °C
2  C[C@H](N)c1nc2c(C(F)(F)F)cccc2c(O)c1C(=O)Nc1nccs1         270 °C
3  CCOC(=O)c1c(NCC(=O)c2ccccc2)c2c(Cl)cc(Cl)cc2n1C(=O)OC(C)(C)C  143 to 144 °C
4                CCOC(=O)c1cn(-c2ccccn2)cn1  118 to 119 °C

# input GET /values?readout=melting point&item= `COC(=O)Cc1cn(C(c2ccccc2)(c2ccccc2)c2ccccc2)cn1`
# output 122 to 125 °C

# input GET /values?readout=melting point&item= CC(=O)C1CCC2C3CC=C4CC(F)CCC4(C)C3CCC12C (stereo unspecified)
# output 166 to 167 °C

---

EXPERIMENTAL READOUT: melting point

>>> df
                                   compound    measurement
0  CC1=C(C(=O)OCCC#N)C(c2cccc([N+](=O)[O-])c2)C(C(=O)OCCCN2CCC(c3ccccc3)(c3ccccc3)CC2)=C(C)N1 (configuration not stated)  158 to 160 °C
1                          COc1ccc(F)c(O)c1    25 to 26 °C
2  O=C(O)c1ccc(C(=O)Nc2nnc(-c3cc(Cl)cc(Cl)c3O)s2)nc1         267 °C

// switching to the query compound
# input GET /values?readout=melting point&item= `CCCCCCN1C(=O)c2cscc2Nc2ccccc21`
# output 100 to 102 °C

---

Collected melting point values appear next to each entry.

// below: answered compounds
                                   compound  experimental_readout    measurement
0  COc1cc2cc(Cl)nc(N3CCN(C(=O)Nc4ccc([N+](=O)[O-])cc4)CC3)c2cc1OC         melting point  227 to 228 °C
1  O=C(NCC1CCCCC1)c1c(Cl)ccc2nc(N3CC(O)C3)ccc12         melting point  206 to 208 °C
2         Cc1cc(Cl)cc(C(=O)Nc2cccc(Cl)c2)n1         melting point         174 °C
3  C=C(c1cc(Cl)ccc1N1CCCCC1)C(C(N)=O)c1ccc(C(=O)O)cc1 (stereo not given)         melting point  198 to 200 °C
4  CC(c1ccc(Cl)cc1)N1CCC2(CC1)Cc1ccccc1O2 (stereo not given)         melting point    64 to 66 °C

# input GET /values?readout=melting point&item= `N#Cc1ccccc1-c1ccc2[nH]c(CCl)nc2c1`
# output 150 to 158 °C

# input GET /values?readout=melting point&item= `O=C1CCc2c(-c3ccncc3)sc(-c3ccc(C(F)(F)F)cc3)c21`
# output 158 to 160 °C

# input GET /values?readout=melting point&item= C#CCOc1cc2c(cc1F)CCC2CCNC(=O)CC (stereo not given)
# output 78 to 81 °C

# input GET /values?readout=melting point&item= N#CC1CN1C(=S)NC(=O)c1ccccc1 (stereo not given)
# output 135 to 140 °C

# input GET /values?readout=melting point&item= `O=C(Nc1ccc2nc(CN3CCN=C3Cc3ccccc3)ccc2c1)c1ccc(-c2ccc(F)cc2)cc1`
# output 200 to 202 °C

# input GET /values?readout=melting point&item= `CCOC(=O)c1cnc2cc(C)sc2c1O`
# output 240 to 245 °C

# input GET /values?readout=melting point&item= CCCCNC(=O)C(O[Si](C)(C)C(C)(C)C)C(c1ccccc1)c1ccccc1 (stereo not given)
# output 73 to 74 °C

# input GET /values?readout=melting point&item= `CCCCCCCCCCCCc1c2c(=O)c3cc(-c4cccs4)ccc3c2c(CCCCCCCCCCCC)c2c(=O)c3cc(-c4cccs4)ccc3c12`
# output 205 to 206 °C

# input GET /values?readout=melting point&item= `O=C(Nc1ccc2ncccc2c1)OCc1ccccc1`
# output 122 °C

# input GET /values?readout=melting point&item= `Cc1cccc(C)c1CS(=O)(=O)NCCc1c(CCCc2ccc(C(=O)O)cc2)c2cc(Cl)ccc2n1C(c1ccccc1)c1ccccc1`
# output 193 °C

# input GET /values?readout=melting point&item= `COc1ccc(Cc2cc(=O)[nH]c3nc(OCc4ccccn4)ncc23)cc1Cl`
# output 130 to 131 °C

# input GET /values?readout=melting point&item= O=C(O)C1CCc2cccc3c(=O)[nH]c(=O)n1c23 (stereo not given)
# output > 300 °C

# input GET /values?readout=melting point&item= CCOC(=O)C1=C(C)NC(c2cnc(N)s2)=NC1c1ccc(F)cc1Cl (stereo not given)
# output 132 to 135 °C

# input GET /values?readout=melting point&item= `CCCCCCCCCCCCCCCCCCOC(=O)c1ccc(C(=O)OCCCCCCCCCCCCCCCCCC)cc1`
# output 140 °C

# input GET /values?readout=melting point&item= CC1Nc2cc(-c3ccc(Cl)cc3)ccc2NC1=O (stereo not given)
# output 228 to 230 °C
